Cited source for all entries: PubChem BioAssay (NCI)

test system: K-562 leukemia; assay: NCI-60 one-dose screen, 48 h (100 = growth as untreated, 0 = no growth, -100 = all killed); settings: 10 µM unless noted
This is part of a sample that, as a whole, favours compounds with a hit. Of some 83,000 tested, about 20% had one in any assay.
Mark met only when growth stays strictly below 10%. Values equal to the cut-off are not met.

1) O=C(/C=C/c1ccc2c(c1)OCO2)c1c(O)c2ccccc2oc1=O; not met
2) Cc1oc2c(C(=O)N/N=C\c3ccc(O)cc3O)c[nH]c2c1C; not met
3) Cc1nc(-c2cn3c(n2)-c2ccc(-c4cnn(C(C)(C)C(N)=O)c4)cc2OCC3)n(C(C)C)n1; not met
4) CS(=O)(=O)N1CCN(Cc2cc3nc(-c4cccc5[nH]ncc45)nc(N4CCOCC4)c3s2)CC1; not met
5) C[C@@H]1COCCN1c1cc(C2([S@](C)(=N)=O)CC2)nc(-c2ccnc3[nH]ccc23)n1; not met
6) CCN(CC)C(=O)C[N+](C)(C)CCOC(c1ccccc1)c1ccccc1; not met
7) COc1cc(Nc2c(C#N)cnc3cc(OCCCN4CCN(C)CC4)c(OC)cc23)c(Cl)cc1Cl; not met
8) Cc1ccc(-c2nc3ccc(Cl)cn3c2NC2CCCCC2)o1; not met
9) COc1ccc(-n2c(=O)c3ccccc3n(Cc3ccc(C(=O)NO)cc3)c2=O)cc1; met
10) CCN(CC)CCN1C(=O)c2cccc3c(-c4ccc5c(c4)ncn5C4CCCCC4)ccc(c23)C1=O; met
11) COc1ccc(C(=O)N2c3ccccc3Sc3ccccc32)c(F)c1; not met
12) CC(=O)C1=C(C)NC(SCc2nnc(-c3ccc(C)cc3)o2)=NC1c1ccc(F)cc1 (stereo unspecified); not met
13) CCN1CCN(c2nc(C)cc(N(CCNc3ccnc4cc(Cl)ccc34)Cc3ccc4c(c3)OCO4)n2)CC1; met
14) C[C@@H](N)c1ccc(C(=O)Nc2ccnc3[nH]ccc23)cc1; not met
15) Cc1ccccc1Nc1nc2nonc2nc1Nc1cccc(C)c1C; not met
16) CS(=O)(=O)N1CCc2c(-c3cnc(N)nc3)nc(N3CCOCC3)nc21; not met

====

test system: T-47D breast; experiment: NCI-60 one-dose screen, 48 h; conditions: 10 µM unless noted
This is part of a sample that, as a whole, favours compounds with a hit. Of some 83,000 tested, about 20% had one in any assay. Activity calls are given as the source filed them. Rule for the calls: active = growth percent below 10; inactive = the rest.
Labels: active, inactive

1. CCOC(=O)c1sc(NC(=O)COc2ccc(/C=C3\Cc4ccc(Cl)cc4C3=O)cc2)nc1C; inactive
2. Clc1ccc(Nc2nccc(Nc3ccc4[nH]ncc4c3)n2)cc1; inactive
3. COc1cc(CCc2cc(NC(=O)c3ccc(N4C[C@@H](C)N[C@@H](C)C4)cc3)n[nH]2)cc(OC)c1; inactive
4. Cc1ccc(NC(=O)Nc2ccc(Nc3ncnc4sc5c(c34)CCOC5)cc2)cc1Cl; inactive
5. CCOc1cc2ncc(C#N)c(Nc3ccc(F)c(Cl)c3)c2cc1NC(=O)/C=C/CN(C)C; active
6. CNC(=O)c1cc(Oc2cccc3nc(Nc4ccc(Cl)c(F)c4)ccc23)ccn1; inactive
7. COc1cc(NC2CCC(=O)N2c2ccc(Cl)cc2Cl)cc(OC)c1OC (stereo unspecified); inactive
8. COC[C@@H](C)n1c(C2CCOCC2)nc2c1C1C=C(OC)C(c3c(C)noc3C)=CC1N=C2 (stereo partly specified); inactive
9. Cn1c(=O)c(F)c(Nc2ccc(I)cc2F)c2c(=O)n(C[C@@H](O)CO)cnc21; inactive
10. Cc1cc2c3c(cccc3c1)C(=O)c1ccccc1-2; inactive
11. COc1ncc(-c2ccc3nccc(-c4ccnnc4)c3c2)cc1NS(=O)(=O)c1ccc(F)cc1F; active
12. CO/C=C/C(=O)c1cc2cnc3c(=N)cc(NC(=O)C(C)C)c([nH]1)c23; active
13. CNC(=O)c1cccc2cc(Oc3ccnc4cc(OCC5(N)CC5)c(OC)cc34)ccc12; inactive
14. COC(=O)Nc1nc2ccc(C(=O)c3ccc(N(C)C4COC4)cc3)cc2[nH]1; inactive
15. O=c1sn(-c2cccc3ccccc23)c(=O)n1Cc1ccccc1; inactive
16. Nc1c2c(c(O)c3c1=C(CO)C=N3)=NCCS2=O (stereo unspecified); active
17. C=CC(=O)N1CCC[C@H](n2c(=O)n(-c3ccc(Oc4ccccc4)cc3)c3c(N)ncnc32)C1; inactive
18. COc1ccc(-c2cc3c(C)nc(N)nc3n(C3CCC(OCCO)CC3)c2=O)cn1 (stereo unspecified); active
19. CC[n+]1c(/C=C/C=C2\N(C)c3ccccc3C2(C)C)sc2ccccc21; active
20. CCN(CC)CCNc1ccc(N=Nc2cnc3ccccc3c2)c2ccccc12; active
21. Clc1nc(Cl)c2ncn(CC#CCn3cnc4c(Cl)nc(Cl)nc43)c2n1; active
22. COC(=O)[C@]12CC[C@@H](C)[C@H](C)[C@@H]1C1=CC[C@@H]3[C@@]4(C)C(C=O)=C[C@@](C)(COS(C)(=O)=O)C4=CC[C@@]3(C)[C@]1(C)CC2; active
23. O=c1[nH]c(N2CCOCC2)nc2scc(-c3ccccc3)c12; inactive
24. CCN1CCN(c2cc(C)nc(N(CCCNc3ccnc4cc(Cl)ccc34)Cc3ccc4c(c3)OCO4)n2)CC1; active
25. CCc1cc2c(c3ccc(C(=O)CBr)cc13)CCCC2; inactive
26. O=CC(OC(=O)c1ccccc1)C(OC(=O)c1ccccc1)C(COC(c1ccccc1)(c1ccccc1)c1ccccc1)OC(=O)c1ccccc1 (stereo unspecified); inactive

====

system: NCI-H322M lung; assay: NCI-60 one-dose screen, 48 h (100 = growth as untreated, 0 = no growth, -100 = all killed); conditions: 10 µM unless noted
Compounds without any hit were thinned out: in the full panel of roughly 83,000, 20% have a hit.
Form field: growth (one value per entry).
quantity.measured: growth (%)

1. CCN1CCN(CCCN(C[C@H]2Cc3ccccc3CN2)[C@H]2CCCc3cccnc32)CC1; 79.7
2. C=CC(=O)N(C)[C@H]1C[C@H]2OC(C)(C1OC)n1c3ccccc3c3c4c(c5c6ccccc6n2c5c31)C(=O)NC4 (stereo partly specified); 6.29
3. CC1(COc2ccc3c(c2)ncn3-c2ccc3cccc(N4CCC(N)CC4)c3n2)COC1; 41.1
4. CCCc1cc2cc(-n3nc(C)c4c3CC(C)(C)CC4=O)cc(NC3CCC(O)CC3)c2c(=O)[nH]1 (stereo unspecified); 58.2
5. O=c1[nH]c(N2CCOCC2)nc2scc(-c3ccccc3)c12; 95
6. CN1CCN(c2ccc(C(=O)Nc3n[nH]c4ccc(Cc5cc(F)cc(F)c5)cc34)c(NC3CCOCC3)c2)CC1; 33.8
7. CCOC(=O)c1sc(NC(=O)COc2ccc(/C=C3\Cc4ccc(Cl)cc4C3=O)cc2)nc1C; 103
8. C=CCCCOC1[C@H](OCc2ccccc2)C(OCc2ccccc2)C(OC)O[C@@H]1CNC(=O)c1cccc(I)c1 (stereo partly specified); 70.3
9. CCN(CCN(C)C)C(=O)CNCc1cc(C(N)=O)ccn1; 106
10. CNC(=O)c1cccc2cc(Oc3ccnc4cc(OCC5(N)CC5)c(OC)cc34)ccc12; 74.3
11. Nc1nc(N)c2cc(CNc3ccc(C(=O)NC(CC(=O)O)C(=O)O)cc3)ccc2n1 (stereo unspecified); 66.7
12. CCC1(/C=N/NC(N)=S)NC(=O)NC1=O (stereo unspecified); 106
13. Cn1cc(-c2ccc(F)c(C(F)(F)F)c2)nc1C1CCN(c2ncnc3[nH]ncc23)CC1; 75.3
14. CCN1CCN(Cc2ccc(-c3cc4c(N[C@H](C)c5ccccc5)ncnc4[nH]3)cc2)CC1; -2.25
15. COc1cc2ncnc3c2cc1OCCCCCN(C)Cc1ccc(Br)cc1N3; 0.138
16. N#Cc1ccc(-n2nnc3ccccc32)cc1C#N; 111
17. Nc1c2c(c(O)c3c1=C(CO)C=N3)=NCCS2=O (stereo unspecified); -95.1
18. C/C(=N\NC(=O)Cn1c(-c2ccc(S(C)(=O)=O)cc2)nc2ccccc21)c1ccc(Cl)cc1; 94.8
19. CCS(=O)(=O)N1CCN(c2ccc(Nc3ncc(C(N)=O)c(NC4CC4)n3)cc2)CC1; 79.4
20. Cc1cc2c(F)c(Oc3ncnn4cc(OC[C@@H](C)OC(=O)[C@H](C)N)c(C)c34)ccc2[nH]1; 41.1
21. COc1ccc2c(CCCCC(c3ccccc3)c3ccccc3)c3[n+](cc2c1OC)CCc1cc2c(cc1-3)OCO2; 11.1

====

test system: A498 renal; assay: NCI-60 one-dose screen, 48 h (100 = growth as untreated, 0 = no growth, -100 = all killed); conditions: 10 µM unless noted
About 83,000 compounds went through this panel and 20% of them were active in at least one assay; those are over-represented in the sample as a whole.
quantity.measured: growth (%)

1. C=CCCCOC1[C@H](OCc2ccccc2)C(OCc2ccccc2)C(OC)O[C@@H]1CNC(=O)c1cccc(I)c1 (stereo partly drawn); 71.2
2. CN1[C@@H]2CC[C@H]1/C(=C\c1ccccc1)C1=C2[C@@H](c2ccccc2)C(C#N)=C(N)O1; 70.3
3. c1cc(OCCN2CCCCC2)cc(-c2n[nH]c3ccc(-c4ncn[nH]4)cc23)c1; 71
